The reported measurements were obtained from PubChem BioAssay AID1626.

# Procedure details: M. tuberculosis H37Rv growth inhibitors, H37Rv strain (AID 1626);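 also: bacteria incubated seven days before Alamar blue readout; 0% = bacteria only wells and 100% = bacteria with antibiotic wells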
# Applied conditions: active compounds read high, concentration not given here
Screen size: about 220,000 compounds; about 2,000 (0.91%) were called active. Inconclusive results (about 2%) are left out. Not all results are given here. Entries with a potency or affinity are not part of this list.
Readout kind: inhibition (%)
Number only, in %; omit the unit.

Example results:
Compound structure string | Reported
CCOC(=O)c1cc(C)nc(SC)c1C#N | 2.58
O=C(COC(=O)c1ccc(Cl)nc1)NCc1ccco1 | -2.82
OCc1cn(-c2ccccc2)nc1-c1ccc(-c2nn(-c3ccccc3)cc2CO)cc1 | -1.67

Lab note: measured inhibition of `O=C(Nc1nc2ccccc2n1CCN1CCCC1)C1CCCCC1` was -3.71

Documented inhibition of `Cc1ccc(-c2nn(-c3ccccc3)cc2CSC(=N)N)cc1` : 50.3

Entry `CN(C)S(=O)(=O)c1cc(NC(=O)CN2CCCc3ccccc32)ccc1Cl` , inhibition reported as -10.6

// `CCOC(=O)c1c(CN2CCC(C)CC2)n(C)c2cc(Br)c(OC)cc12` : inhibition value = 11.6
